TGI: recorded values
# Tested on: SK-MEL-5 melanoma
# Assay Text: NCI tumour cell line growth inhibition, 48 h
Expressed in µM, but write only the number.

Smiles Repr: CCOc1ccc(N/C(Cl)=C(Cl)\C(=C(\Nc2ccc(OCC)cc2)n2nnc3ccccc32)[N+](=O)[O-])cc1
System Name: SK-MEL-5 melanoma
TGI [µM]: 24.5

Now for a further molecule.
For reference, reported TGI for "CCCCCCCCCCCCCC1=NCCN1CCO" stands at 11.2

====

# System: NCI-H23 lung
# Assay Text: NCI tumour cell line growth inhibition, 48 h
Measurement Type: TGI

Below, 4 molecules whose answers are already recorded.
Molecule: O=C(N/N=C/c1cc(Cl)cc(Cl)c1[O-])c1ccccc1O.O=C(N/N=C/c1cc(Cl)cc(Cl)c1[O-])c1ccccc1O.[Zn+2]
Assay Result: 11.2 µM
--
Molecule: O=C1c2ccccc2S(=O)(=O)N1CSC(=S)N1CCCCC1
Assay Result: > 100 µM
--
Molecule: CCOC(=O)C(C)NC(=O)C(C)NC(=O)C(C)NC(=O)C(C)NC(=O)C(C)NC(=O)OCc1ccccc1 (stereo unspecified)
Assay Result: > 100 µM
--
Molecule: CC1(C)Cc2c(C#N)c(N)c3c(c2CO1)C(=O)OC3=O
Assay Result: > 100 µM

Lab note: measured TGI of "CC(C)(C)Nc1noc(=O)n1C(C)(C)C" was > 100 µM

Reported TGI for "c1cc2c(c(NC3=NCCO3)c1)CCC2" was > 100 µM

The molecule listed as COc1ccc(C2CC(c3cc(C)ccc3O)=NC(N)=N2)cc1 (stereo unspecified) has a reported TGI of > 100 µM

Entry "CC(=O)c1cc(C(=O)c2ccc3c(c2)Sc2ccccc2N3)c2c(C)cc(C)cn12" ; TGI = > 100 µM

The reported value for "NS(=O)(=O)c1ccc(NC2=CC(=O)C(=O)c3ccccc32)cc1" in terms of TGI is > 100 µM

TGI for C/C=C/C1=CC(=O)C(O)C1O (stereo unspecified) is > 77.9 µM

# molecule "COc1c(C(=O)c2ccc([N+](=O)[O-])cc2)cc(C(C)(C)C)cc1C(C)(C)C" ; its TGI = > 100 µM
